Listed compounds paired with reported MIC
System: Bacillus cereus
Assay: Antimicrobial activity against Gram-positive Bacillus cereus ATCC 17788 after 16 to 24 hrs by micro-dilution method
Format: functional
Write down the numeric answer in µg/mL and omit the unit.

The reported value for NC[C@H]1O[C@H](O[C@H]2[C@H](O)[C@@H](O[C@H]3O[C@H](CO)[C@@H](O)[C@H](N)[C@H]3O)[C@H](N)C[C@@H]2N)[C@H](O)[C@@H](O)[C@@H]1O [KANAMYCIN] in terms of MIC is 9.4

Lab note: CCN[C@@H]1C[C@H](N)[C@@H](O[C@H]2OC(CN)=CC[C@H]2N)[C@H](O)[C@H]1O[C@H]1OC[C@](C)(O)[C@H](NC)[C@H]1O [NETILMICIN] gave MIC of 4.7

# MIC (compound: `CN[C@@H]1[C@@H](O)[C@@H](O[C@@H]2[C@@H](O)[C@H](O[C@H]3OC(CNC(=O)CN)=CC[C@H]3N)[C@@H](N)C[C@H]2N)OC[C@]1(C)O` ) is 75

MIC reading for CN[C@@H]1[C@@H](O)[C@@H](O[C@@H]2[C@@H](O)[C@H](O[C@H]3OC(CN)=CC[C@H]3N)[C@@H](N)C[C@H]2N)OC[C@]1(C)O [SISOMICIN] : 9.4

The reported value for NCC[C@@H](O)C(=O)NC[C@H]1O[C@H](O[C@@H]2[C@@H](O)[C@H](O[C@@H]3O[C@@H](CO)[C@H](O)[C@@H](N)[C@@H]3O)[C@@H](NC(=O)[C@@H](O)CCN)C[C@H]2N)[C@H](O)[C@@H](O)[C@@H]1O (stereo in doubt) in terms of MIC is 150

Per the records, this compound ( NC[C@H]1O[C@H](O[C@H]2[C@H](O)[C@@H](O[C@H]3O[C@H](CO)[C@@H](O)[C@H](N)[C@H]3O)[C@H](N)C[C@@H]2N)[C@H](N)C[C@@H]1O [TOBRAMYCIN] ) has MIC equal to 9.4

Reported MIC for `CCN[C@@H]1C[C@H](N)[C@@H](O[C@H]2OC(CNC(=O)CN)=CC[C@H]2N)[C@H](O)[C@H]1O[C@H]1OC[C@](C)(O)[C@H](NC)[C@H]1O` was 75

---

Each item that follows carries a reported MIC.
Tested on: Staphylococcus aureus
Assay: Antimicrobial activity against Gram-positive Staphylococcus aureus ATCC 29213 after 16 to 24 hrs by micro-dilution method
Type: functional
Give the quantity in µg/mL, number only.

testSmiles	assayedTarget	recordedMetric	endpointResult
NCC[C@H](O)C(=O)NC[C@H]1O[C@H](O[C@H]2[C@H](O)[C@@H](O[C@H]3O[C@H](CO)[C@@H](O)[C@H](N)[C@H]3O)[C@H](N)C[C@@H]2N)[C@H](O)[C@@H](O)[C@@H]1O	Staphylococcus aureus	MIC	32
CN[C@@H]1[C@@H](O)[C@@H](O[C@@H]2[C@@H](O)[C@H](O[C@H]3OC(CNC(=O)CN)=CC[C@H]3N)[C@@H](N)C[C@H]2N)OC[C@]1(C)O	Staphylococcus aureus	MIC	1
NCC[C@H](O)C(=O)NC[C@H]1O[C@H](O[C@H]2[C@H](O)[C@@H](O[C@H]3O[C@H](CO)[C@@H](O)[C@H](N)[C@H]3O)[C@H](N)C[C@@H]2N)[C@H](N)C[C@@H]1O	Staphylococcus aureus	MIC	8
CCN[C@@H]1C[C@H](N)[C@@H](O[C@H]2OC(CNC(=O)CN)=CC[C@H]2N)[C@H](O)[C@H]1O[C@H]1OC[C@](C)(O)[C@H](NC)[C@H]1O	Staphylococcus aureus	MIC	0.5
NCC(=O)NC[C@H]1O[C@H](O[C@H]2[C@H](O)[C@@H](O[C@H]3O[C@H](CO)[C@@H](O)[C@H](N)[C@H]3O)[C@H](N)C[C@@H]2N)[C@H](N)C[C@@H]1O	Staphylococcus aureus	MIC	8

GET /value?item= `NC[C@H]1O[C@H](O[C@H]2[C@H](O)[C@@H](O[C@H]3O[C@H](CO)[C@@H](O)[C@H](N)[C@H]3O)[C@H](N)C[C@@H]2N)[C@H](N)C[C@@H]1O` &field=MIC returns 0.5

For record `NC[C@H]1O[C@H](O[C@H]2[C@H](O)[C@@H](O[C@H]3O[C@H](CO)[C@@H](O)[C@H](N)[C@H]3O)[C@H](N)C[C@@H]2N)[C@H](O)[C@@H](O)[C@@H]1O` the listed MIC is 0.5
